Value source: ChEMBL document CHEMBL1123558

test system: B16; assay: In vitro cytotoxicity against murine B16 melanoma cells; assay type: functional, cell-based, Mus musculus; details: Mus musculus, B16

| compound smiles | bound operator | IC50, µM |
| --- | --- | --- |
| c1ccc(P(CCCCCCP(c2ccccc2)c2ccccc2)c2ccccc2)cc1 | > | 100 |
| c1ccc(P(CCP(CCP(c2ccccc2)c2ccccc2)CCP(c2ccccc2)c2ccccc2)c2ccccc2)cc1 | = | 58 |
| C(=C/P(c1ccccc1)c1ccccc1)/P(c1ccccc1)c1ccccc1 | = | 25 |
| c1ccc(P(CCCCCP(c2ccccc2)c2ccccc2)c2ccccc2)cc1 | > | 100 |
| c1ccc(P(CC[As](c2ccccc2)c2ccccc2)c2ccccc2)cc1 | = | 55 |
| Cc1cccc(P(CCP(c2cccc(C)c2)c2cccc(C)c2)c2cccc(C)c2)c1 | > | 100 |
| Fc1ccccc1P(CCP(c1ccccc1F)c1ccccc1F)c1ccccc1F | > | 100 |
| c1ccc(P(CCP(c2ccccc2)c2ccccc2)c2ccccc2)cc1 | = | 50 |

---

tested on: B16; experiment: In vitro cytotoxicity against murine B16 melanoma cells; assay type: functional, cell-based, Mus musculus; details: Mus musculus, B16

| molecule | IC50 |
| --- | --- |
| c1csc(P(CCP(c2cccs2)c2cccs2)c2cccs2)c1 | > 100 µM |
| c1ccc(P(c2ccccc2)c2ccc(P(c3ccccc3)c3ccccc3)cc2)cc1 | > 100 µM |
| C(=C\P(c1ccccc1)c1ccccc1)/P(c1ccccc1)c1ccccc1 | 40 µM |
| c1coc(P(CCP(c2ccco2)c2ccco2)c2ccco2)c1 | > 100 µM |
| CCP(CCP(CC)c1ccccc1)c1ccccc1 (stereo unspecified) | > 100 µM |
| CCP(CC)CCP(CC)CC | > 100 µM |
| c1ccc(P(CCCP(c2ccccc2)c2ccccc2)c2ccccc2)cc1 | 72 µM |
| c1ccc(CP(CCP(Cc2ccccc2)Cc2ccccc2)Cc2ccccc2)cc1 | > 100 µM |
| C1CCC(P(CCP(C2CCCCC2)C2CCCCC2)C2CCCCC2)CC1 | > 100 µM |
| O=P(CCP(=O)(c1ccccc1)c1ccccc1)(c1ccccc1)c1ccccc1 | > 100 µM |
| c1ccc(P(CCP(c2ccccc2)c2ccccc2)CCP(c2ccccc2)c2ccccc2)cc1 | > 100 µM |

---

tested on: B16; assay: In vitro cytotoxicity against murine B16 melanoma cells; format: functional, cell-based, Mus musculus; conditions: Mus musculus, B16
pIC50: −log10 of the molar value.
The entries below are paired with their reported pIC50.

| compound | pIC50 |
| --- | --- |
| c1ccc(P(CCCCP(c2ccccc2)c2ccccc2)c2ccccc2)cc1 | < 4.00 |
| c1ccc(SCCSc2ccccc2)cc1 | < 4.00 |
| Cc1ccc(P(CCP(c2ccc(C)cc2)c2ccc(C)cc2)c2ccc(C)cc2)cc1 | < 4.00 |
| Fc1ccc(P(CCP(c2ccc(F)cc2)c2ccc(F)cc2)c2ccc(F)cc2)cc1 | < 4.00 |
| c1ccc([As](CC[As](c2ccccc2)c2ccccc2)c2ccccc2)cc1 | < 4.00 |
| CC(CP(c1ccccc1)c1ccccc1)P(c1ccccc1)c1ccccc1 (stereo unspecified) | 4.30 |
| CC(C(C)P(c1ccccc1)c1ccccc1)P(c1ccccc1)c1ccccc1 (stereo unspecified) | 4.30 |
| c1ccc(P(c2ccccc2)P(c2ccccc2)c2ccccc2)cc1 | < 4.00 |
| c1ccc(P(CCP(c2ccccn2)c2ccccn2)c2ccccn2)nc1 | < 4.00 |
| C(#CP(c1ccccc1)c1ccccc1)P(c1ccccc1)c1ccccc1 | 4.64 |
| COc1ccc(P(CCP(c2ccc(OC)cc2)c2ccc(OC)cc2)c2ccc(OC)cc2)cc1 | 4.18 |
